I'd appreciate it if you could supply log10 EC50 values for the items below.
target_or_system: IDO1 (Homo sapiens, UniProt P14902)
Construct: HeLa cells were treated with a test compound in the presence of IFNγ, which induces IDO1 expression; host or cells: H1-HeLa cells, IDO1 induced with IFNγ
Sequence (P14902 whole entry): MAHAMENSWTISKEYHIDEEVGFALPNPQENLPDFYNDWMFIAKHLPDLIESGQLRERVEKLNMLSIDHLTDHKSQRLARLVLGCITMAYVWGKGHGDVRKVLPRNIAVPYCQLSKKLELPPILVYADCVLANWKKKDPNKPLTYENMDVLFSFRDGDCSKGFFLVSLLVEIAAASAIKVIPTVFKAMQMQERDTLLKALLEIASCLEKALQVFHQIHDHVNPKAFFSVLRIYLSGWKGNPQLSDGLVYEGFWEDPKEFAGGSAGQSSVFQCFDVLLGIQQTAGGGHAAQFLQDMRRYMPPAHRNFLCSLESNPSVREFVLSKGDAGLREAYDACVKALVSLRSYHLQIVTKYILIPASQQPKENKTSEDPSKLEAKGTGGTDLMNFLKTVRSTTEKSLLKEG
assay_procedure: Cell-based (HeLa) assay for measurement of IDO1 inhibition (kynurenine levels in supernatant after IFNγ induction)
condition_parameters: HeLa cells, IFNγ-induced IDO1, kynurenine in supernatant after 48 hour incubation; geometric mean of a minimum of four determinations
# log10 transformed; quantity=EC50; unit=nM

Examples from the recorded data:
>>> numeric_result("CCN(CC)CCc1nc2c(F)c(F)cc(/C(=N/O)Nc3ccc(F)c(Cl)c3)c2[nH]1 [Example 58]")
2.90
>>> numeric_result("NC1=NCCN1CCc1nc2nccc(/C(=N/O)Nc3ccc(F)c(Cl)c3)c2[nH]1 [Example 209]")
3.70
>>> numeric_result("COCCN(CCNc1nc2nccc(/C(=N/O)Nc3ccc(F)c(Cl)c3)c2[nH]1)C1CC1 [Example 232]")
2.66

For every listed record, write down its log10 EC50.
1. Nc1nc2c(F)c(F)cc(/C(=N/O)Nc3ccc(F)c(Br)c3)c2[nH]1 [Example 14]
2. O/N=C(\Nc1cc(Cl)ccc1Cl)c1ccnc2nc[nH]c12 [Example 76]
3. O/N=C(\Nc1ccc(F)c(Cl)c1)c1ccnc2nc(NCCC3CCOCC3)[nH]c12 [Example 224]
4. COCc1nc2nccc(/C(=N/O)Nc3ccc(F)c(Cl)c3)c2[nH]1 [Example 110]
5. CCNCc1nc2nccc(/C(=N/O)Nc3ccc(F)c(Cl)c3)c2[nH]1 [Example 114]

1. 2.69
2. 2.89
3. 3.57
4. 3.37
5. 2.97
